Provenance of the data: the Human Domainome abundance scans (Beltran et al. 2025)

B1: SH3 and PX domain-containing protein 2B, residues 155 to 209; numbered along this chain, A1X283 (parent)
chain: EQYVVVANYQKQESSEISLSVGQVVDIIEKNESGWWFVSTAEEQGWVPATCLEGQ

Variants of: B1
Experiment: abundance fitness (aPCA) (normalised: wild type 0, dead -1); higher = more abundant; growth selection in yeast, the domain comes from the species named
Conditions: Homo sapiens
experimental_readout: abundance fitness
One number for each entry.

EQYVSVANYQKQESSEISLSVGQVVDIIEKNESGWWFVSTAEEQGWVPATCLEGQ [V5S] | -0.099

Respectfully, I request abundance fitness for each entry included below.
1. EQYVVVANYQKQESSEISLSVGQVVDIIEKNESGWWFVSTAEEQGWVPATCLEGI [Q55I]
2. EQYVVVLNYQKQESSEISLSVGQVVDIIEKNESGWWFVSTAEEQGWVPATCLEGQ [A7L]
3. EQYVVVANYQKQESSEISLSVGQVVDIIEKNESGWWCVSTAEEQGWVPATCLEGQ [F37C]
4. EQYVVVANYQKQESSEISLSVTQVVDIIEKNESGWWFVSTAEEQGWVPATCLEGQ [G22T]
5. EQYVVVANYQGQESSEISLSVGQVVDIIEKNESGWWFVSTAEEQGWVPATCLEGQ [K11G]
6. EQYVVVANYQKQESSEISLSVAQVVDIIEKNESGWWFVSTAEEQGWVPATCLEGQ [G22A]

a:
1. -0.099
2. -0.101
3. -0.127
4. -0.588
5. -0.015
6. -0.5
